Values compiled from paper PMC4336329.

Biological target: human ether-à-go-go-related gene (hERG) potassium channel (human, UniProt Q12809)
Sequence (Q12809 whole entry, looked up): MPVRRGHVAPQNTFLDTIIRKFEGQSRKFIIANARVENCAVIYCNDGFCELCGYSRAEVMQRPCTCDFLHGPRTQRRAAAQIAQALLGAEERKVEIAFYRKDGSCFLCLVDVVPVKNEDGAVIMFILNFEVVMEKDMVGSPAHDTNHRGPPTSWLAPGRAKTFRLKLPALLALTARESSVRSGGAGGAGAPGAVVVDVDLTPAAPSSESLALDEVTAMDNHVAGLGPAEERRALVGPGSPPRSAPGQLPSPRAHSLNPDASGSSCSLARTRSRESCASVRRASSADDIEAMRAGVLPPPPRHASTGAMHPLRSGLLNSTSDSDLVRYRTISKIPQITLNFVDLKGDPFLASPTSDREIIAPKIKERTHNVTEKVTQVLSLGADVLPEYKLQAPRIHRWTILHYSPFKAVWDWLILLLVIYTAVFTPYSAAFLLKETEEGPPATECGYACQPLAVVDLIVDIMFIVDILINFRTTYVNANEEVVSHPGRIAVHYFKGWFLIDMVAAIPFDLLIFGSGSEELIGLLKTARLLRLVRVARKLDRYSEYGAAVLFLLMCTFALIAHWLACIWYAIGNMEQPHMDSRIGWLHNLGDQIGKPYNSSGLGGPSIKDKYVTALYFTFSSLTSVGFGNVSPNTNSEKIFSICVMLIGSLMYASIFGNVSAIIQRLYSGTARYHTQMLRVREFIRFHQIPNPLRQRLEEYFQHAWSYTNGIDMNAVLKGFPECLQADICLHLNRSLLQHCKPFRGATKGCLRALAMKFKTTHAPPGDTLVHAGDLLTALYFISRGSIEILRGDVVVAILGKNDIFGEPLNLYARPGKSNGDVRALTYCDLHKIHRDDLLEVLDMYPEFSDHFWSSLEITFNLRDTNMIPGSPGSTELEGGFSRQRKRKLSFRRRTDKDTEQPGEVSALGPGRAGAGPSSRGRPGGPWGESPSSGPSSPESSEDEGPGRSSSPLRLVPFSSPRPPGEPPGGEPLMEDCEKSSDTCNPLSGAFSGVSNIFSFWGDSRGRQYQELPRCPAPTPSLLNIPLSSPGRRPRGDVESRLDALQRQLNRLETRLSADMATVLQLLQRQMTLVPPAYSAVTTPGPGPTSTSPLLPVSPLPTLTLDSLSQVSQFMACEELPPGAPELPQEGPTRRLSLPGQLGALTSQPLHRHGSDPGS
Test: primary screen, population patch clamp on CHO cells stably expressing hERG; higher = less effect of the substance
Out of some 310,000 compounds screened, about 14,000 (4.5%) showed an effect of 50% or more. Effects have a minus sign here. This excerpt belongs to a sample that is enriched for strong results.
Assay Readout: hERG current change (%, negative = inhibition) at 10uM (%)

# Query Smiles, Reported Measurement
measured = [
    ("COC(=O)c1ccccc1NC(=O)NC1CCN(Cc2ccccc2)CC1", -31.1),
    ("COc1ccc(OC)c(/C=C(\\C)C(=O)c2c(C)cc(C)[nH]c2=O)c1", 7.34),
    ("COC(=O)c1cc(C(=O)OCC(=O)NC2CCCCCCC2)cc([N+](=O)[O-])c1", -7.58),
    ("Cc1csc(SCC(=O)NC2CCCCC2)n1", -1.79),
    ("Oc1ccc(C=NCCc2ccccc2)cc1", 10.2),
    ("O=C(NCCc1ccccc1)C1CCN(S(=O)(=O)c2cccs2)CC1", -2.14),
]

* * *

Target: human ether-à-go-go-related gene (hERG) potassium channel (human, UniProt Q12809)
Assay: primary screen, population patch clamp on CHO cells stably expressing hERG; higher = less effect of the substance
About 14,000 (4.5%) of roughly 310,000 compounds showed an effect of 50% or more. The effect is printed as a negative number. This excerpt belongs to a sample that is enriched for strong results.
Assay Readout: hERG current change (%, negative = inhibition) at 10uM (%)

# Molecule, Reported Measurement
data = [
    ("CCOc1ccc(Br)cc1C(=O)N/N=C/c1cccnc1", 1.64),
    ("CCCOP(=O)(c1ccc(N(C)C)cc1)C(O)c1ccc(Cl)cc1 (stereo not shown)", 9.5),
    ("O=C(COC(=O)Cc1ccccc1[N+](=O)[O-])NCC1CCCCC1", 0.647),
    ("O=C(NCc1ccco1)c1ccccc1", 8.8),
    ("CCCOP(=O)(c1ccc(N(C)C)cc1)C(O)c1ccc(Cl)cc1Cl (stereo not shown)", -54.9),
    ("C(#CCN1CCOCC1)COCc1ccccc1.Cl", 11.1),
    ("O=c1[nH]c(CSc2nc3ccccc3[nH]2)nc2c1cnn2-c1ccccc1", -17.6),
    ("CC(=O)Nc1cccc(NC(=O)CSc2nnc(Cc3cccn3C)n2-c2ccc(C)cc2)c1", -11.9),
    ("Cc1cccc(Nc2nc(-c3ccccn3)cs2)n1", 12.9),
    ("CCCCn1c(SCC(=O)NCc2ccco2)nc2cc(S(N)(=O)=O)ccc21", -7.32),
]

* * *

Target: human ether-à-go-go-related gene (hERG) potassium channel (human, UniProt Q12809);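 further: peak tail current of the secondary pulse compared with the same well before compound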
Assay: primary screen, population patch clamp on CHO cells stably expressing hERG; higher = less effect of the substance
Protocol: Briefly, Chinese hamster ovary (CHO) cells stably expressing the hERG channel were dislodged from tissue culture flasks and dispensed into PPC plates. […] During the recording, background leak currents were estimated by a 100 ms step to -80 mV from an initial holding potential of -70 mV and subtracted from the subsequent current measurement. The campaign was conducted in two phases using slight differences in recording protocol. […]
Hit rate of the full screen: of about 310,000 compounds, about 14,000 (4.5%) showed an effect of 50% or more. Effects have a minus sign here. What follows is part of a selection rich in strong results, with near analogues and random picks from the rest.
Label rule, in plain words: hERG current change (%, negative = inhibition) at 10uM of -10% and up is t, under -10% is f.

# Molecule, Group Label
rows = [
    ("Cc1cc(C)c(C)c(OCCNCc2ccccc2)c1.O=C(O)C(=O)O", "t"),
    ("O=C(NC1CCCc2c1cnn2-c1ccc(F)cc1F)c1ccccn1 (stereo not shown)", "t"),
    ("O=C(NC1CCCc2c1cnn2-c1cc(F)cc(F)c1)c1ccncc1 (stereo not shown)", "f"),
    ("Cc1ccc(OCCNCc2ccccc2)c(C)c1.O=C(O)C(=O)O", "t"),
    ("C=CCC(=O)NC1CCCc2c1cnn2-c1cc(F)cc(F)c1 (stereo not shown)", "f"),
    ("Clc1cccc(Cl)c1OCCOCCNCc1ccccc1.O=C(O)C(=O)O", "f"),
    ("Cn1nccc1C(=O)NC1CCCc2c1cnn2-c1cc(F)cc(F)c1 (stereo not shown)", "f"),
    ("O=C(CCc1ccncc1)NC1CCCc2c1cnn2-c1cc(F)cc(F)c1 (stereo not shown)", "f"),
    ("O=C(NC1CCCc2c1cnn2-c1cc(F)cc(F)c1)c1ccccn1 (stereo not shown)", "f"),
]

* * *

Target: human ether-à-go-go-related gene (hERG) potassium channel (human);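 further: peak tail current of the secondary pulse compared with the same well before compound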
Experiment: primary screen, population patch clamp on CHO cells stably expressing hERG; higher = less effect of the substance
The whole screen tested about 310,000 compounds, of which about 14,000 (4.5%) showed an effect of 50% or more. The effect is printed as a negative number. For the sample, strong results were picked, then their nearest neighbours and some compounds at random.
Assay Readout: hERG current change (%, negative = inhibition) at 10uM (%)

# Molecule, Target, Reported Measurement
rows = [
    ("COCC(=O)Nc1nc2n(n1)C(c1ccc(Cl)cc1)CC(c1ccc(OC)cc1)N2 (stereo not drawn)", "human ether-à-go-go-related gene (hERG) potassium channel (human)", -73.8),
    ("COc1ccc(C2CC(c3ccccc3)Nc3nc(NC(=O)c4ccco4)nn32)cc1 (stereo not drawn)", "human ether-à-go-go-related gene (hERG) potassium channel (human)", -64.4),
    ("COc1ccc2cc(C(=O)N3CCC(Cc4ccccc4)CC3)[nH]c2c1", "human ether-à-go-go-related gene (hERG) potassium channel (human)", 25.5),
    ("O=C(Nc1ccccc1Cl)c1cc[n+]([O-])cc1", "human ether-à-go-go-related gene (hERG) potassium channel (human)", 27.8),
    ("O=C(Nc1nc2n(n1)C(c1ccccc1)CC(c1ccc(Cl)cc1)N2)c1ccco1 (stereo not drawn)", "human ether-à-go-go-related gene (hERG) potassium channel (human)", -53.1),
    ("COCC(=O)Nc1nc2n(n1)C(c1ccccc1Cl)CC(c1ccc(OC)cc1)N2 (stereo not drawn)", "human ether-à-go-go-related gene (hERG) potassium channel (human)", -18.6),
    ("COc1ccc(C2CC(c3ccc(OC)cc3)n3nc(NC(=O)c4ccco4)nc3N2)cc1 (stereo not drawn)", "human ether-à-go-go-related gene (hERG) potassium channel (human)", -19.2),
    ("COCC(=O)Nc1nc2n(n1)C(c1ccccc1)CC(c1ccc(OC)cc1)N2 (stereo not drawn)", "human ether-à-go-go-related gene (hERG) potassium channel (human)", -3.73),
    ("O=C(O)CCCC(=O)Nc1nc2n(n1)C(c1ccc(F)cc1)CC(c1ccc(Cl)cc1)N2 (stereo not drawn)", "human ether-à-go-go-related gene (hERG) potassium channel (human)", -0.46),
]

* * *

Target: human ether-à-go-go-related gene (hERG) potassium channel (human, UniProt Q12809);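 further: peak tail current of the secondary pulse compared with the same well before compound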
Test: primary screen, population patch clamp on CHO cells stably expressing hERG; higher = less effect of the substance
Out of some 310,000 compounds screened, about 14,000 (4.5%) showed an effect of 50% or more. The effect is printed as a negative number. This is one part of a sample in which strong results are shown more often than they occur.
Assay Readout: hERG current change (%, negative = inhibition) at 10uM (%)

# Compound, Reported Measurement
measured = [
    ("CCCCCCCCCCCCCCCC[n+]1cccc(C(=O)N(CC)CC)c1.[Br-]", -69.7),
    ("O=C(c1ccco1)N1CCCN(Cc2nc(-c3ccc4c(c3)OCO4)no2)CC1", -46.1),
    ("COCC1CCCN(Cc2nc(-c3ccc4c(c3)OCO4)no2)C1 (stereo not shown)", -5.71),
    ("O=C(CSc1nnc(C2COc3ccccc3O2)o1)N1CCN(c2ccccc2)CC1 (stereo not shown)", 8.03),
    ("COCC1CCN(Cc2nc(-c3ccc4c(c3)OCO4)no2)C1 (stereo not shown)", -17.1),
    ("Cc1nc(COC(=O)c2c(C)nn(-c3ccccc3)c2C)cs1", -2.05),
    ("CCCCCCCCCC[n+]1cccc(C(=O)N(CC)CC)c1.[Br-]", -0.215),
    ("CC(C)C(NS(=O)(=O)c1cccc2nsnc12)C(=O)NCc1ccc2c(c1)OCO2 (stereo not shown)", -18.7),
    ("CCCCCCCC[n+]1cccc(C(=O)N(CC)CC)c1.[Br-]", 13),
    ("NC(=O)c1cc([N+](=O)[O-])ccc1N1CCCCC1", -17.2),
]

* * *

Biological target: human ether-à-go-go-related gene (hERG) potassium channel (human, UniProt Q12809);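 further: peak tail current of the secondary pulse compared with the same well before compound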
Assay: primary screen, population patch clamp on CHO cells stably expressing hERG; higher = less effect of the substance
In all, about 310,000 compounds went through this assay and about 14,000 (4.5%) showed an effect of 50% or more. Effects have a minus sign here. The entries come from a sample that favours strong results as a whole.
hERG current change (%, negative = inhibition) at 10uM overview
Assay Readout: hERG current change (%, negative = inhibition) at 10uM (%)

# Compound, Measure Unit, Reported Measurement
rows = [
    ("CCOC(=O)C1CCN(c2c(NCc3ccc(C(=O)N(C)Cc4ccccc4)cc3)c(=O)c2=O)CC1", "%", -65.2),
    ("CCOC(=O)C1CCCN(Cc2ccc(OCc3ccccc3)c(OC)c2)C1.O=C(O)C(=O)O (stereo not drawn)", "%", -62.2),
    ("CCC(C)NS(=O)(=O)c1ccc(NC(=O)c2ccc([N+](=O)[O-])cc2Cl)cc1 (stereo not drawn)", "%", -88.7),
    ("CCCNC(=O)c1ccc(CNc2c(N3CCC(C(=O)OCC)CC3)c(=O)c2=O)cc1", "%", 3.8),
    ("Cc1cccc(OCCn2c(=O)sc3ccccc32)c1", "%", -3.38),
    ("CC(=O)Nc1ccc(NC(=O)c2ccc([N+](=O)[O-])cc2Cl)cc1", "%", 6.15),
    ("CCC(=O)Nc1ccc(Cl)c(NC(=O)c2ccc([N+](=O)[O-])cc2)c1", "%", -5.07),
    ("CCCC(=O)Nc1cccc(NC(=O)c2ccc([N+](=O)[O-])cc2Cl)c1", "%", -14.5),
    ("CCOC(=O)C1CCN(c2c(NCc3ccc(N(C)C)cc3)c(=O)c2=O)CC1", "%", -5.97),
]
